# assay.system: EPH-B2 (Homo sapiens, UniProt P29323)
# Sequence (P29323 19-1055): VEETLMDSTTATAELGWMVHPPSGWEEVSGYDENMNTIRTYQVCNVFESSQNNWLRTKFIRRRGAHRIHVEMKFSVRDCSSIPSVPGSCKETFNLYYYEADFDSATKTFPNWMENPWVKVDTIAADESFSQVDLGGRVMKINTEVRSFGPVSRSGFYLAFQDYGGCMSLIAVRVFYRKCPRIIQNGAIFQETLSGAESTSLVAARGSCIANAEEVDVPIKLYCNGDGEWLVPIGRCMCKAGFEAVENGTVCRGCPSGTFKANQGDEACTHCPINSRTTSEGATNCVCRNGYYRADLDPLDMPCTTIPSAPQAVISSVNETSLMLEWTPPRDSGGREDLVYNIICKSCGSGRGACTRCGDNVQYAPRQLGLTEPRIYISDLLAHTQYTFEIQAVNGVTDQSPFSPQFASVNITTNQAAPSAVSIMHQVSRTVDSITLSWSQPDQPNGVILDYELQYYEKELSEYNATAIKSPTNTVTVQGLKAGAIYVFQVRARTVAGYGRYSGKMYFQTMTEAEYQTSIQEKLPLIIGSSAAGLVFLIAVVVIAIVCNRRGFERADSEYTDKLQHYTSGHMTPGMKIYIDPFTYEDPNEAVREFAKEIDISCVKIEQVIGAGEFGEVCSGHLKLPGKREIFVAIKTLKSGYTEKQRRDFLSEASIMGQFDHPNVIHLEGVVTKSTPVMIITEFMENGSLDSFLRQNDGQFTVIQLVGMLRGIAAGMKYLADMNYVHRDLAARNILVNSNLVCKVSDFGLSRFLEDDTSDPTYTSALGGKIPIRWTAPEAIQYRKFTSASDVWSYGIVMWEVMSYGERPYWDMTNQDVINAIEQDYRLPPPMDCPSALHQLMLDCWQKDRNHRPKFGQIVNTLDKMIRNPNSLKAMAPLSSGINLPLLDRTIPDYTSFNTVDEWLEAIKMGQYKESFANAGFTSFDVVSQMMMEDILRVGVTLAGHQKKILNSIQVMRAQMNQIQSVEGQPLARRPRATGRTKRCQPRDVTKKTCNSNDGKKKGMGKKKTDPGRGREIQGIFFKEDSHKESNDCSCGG
# protocol.summary: Kinase profiling (radiometric filter-binding)
# Type: biochemical
# test.conditions: EPH-B2, 1 µM inhibitor; read-out: Residual activity, %
Square brackets hold non-standard residues; d marks the D form. Peptide text beside a SMILES is read from it. * marks the point of attachment. X3 = O=C(CCCCCNCc1nc2c(sc3cc(Br)cnc32)c(=O)[nH]1)*
readout.kind: remaining activity at 1 µM (%)

{"compound": "N=C(N)NCCC[C@@H](NC(=O)CNC(=O)[C@@H](CCCNC(=N)N)NC(=O)[C@@H](CCCNC(=N)N)NC(=O)Cn1cc(CNCc2nc3c(sc4ccc(Br)cc43)c(=O)[nH]2)nn1)C(=O)N[C@H](CCCCN)C(N)=O [Compound 3, BBTP-Amt-(D-Arg)2-Gly-D-Arg-D-Lys-NH2]", "assay.system": "EPH-B2 (Homo sapiens, UniProt P29323)", "measured.number": 96}
{"compound": "N=C(N)NCCC[C@@H](NC(=O)CNC(=O)[C@@H](CCCNC(=N)N)NC(=O)[C@@H](CCCNC(=N)N)NC(=O)CCCCCCCNCc1nc2c(sc3ccc(Br)cc32)c(=O)[nH]1)C(=O)N[C@H](CCCCN)C(N)=O [Compound 2, BBTP-Aoc-(D-Arg)2-Gly-D-Arg-D-Lys-NH2]", "assay.system": "EPH-B2 (Homo sapiens, UniProt P29323)", "measured.number": 100}
{"compound": "N=C(N)NCCC[C@@H](NC(=O)CNC(=O)[C@@H](CCCNC(=N)N)NC(=O)[C@@H](CCCNC(=N)N)NC(=O)CCCCCCCNCc1nc2c(sc3cc(Br)cnc32)c(=O)[nH]1)C(=O)N[C@H](CCCCN)C(N)=O [Compound 1, BPTP-Aoc-(D-Arg)2-Gly-D-Arg-D-Lys-NH2]", "assay.system": "EPH-B2 (Homo sapiens, UniProt P29323)", "measured.number": 95}
{"compound": "N=C(N)NCCC[C@@H](NC(=O)CCCCCNC(=O)Cn1cnc2c(I)c(I)c(I)c(I)c21)C(=O)N[C@H](CCCNC(=N)N)C(=O)N[C@H](CCCNC(=N)N)C(=O)N[C@H](CCCNC(=N)N)C(=O)N[C@H](CCCNC(=N)N)C(=O)N[C@H](CCCNC(=N)N)C(=O)N[C@H](CCCCN)C(N)=O [ARC-3125, TIBI-CH2-C(=O)-Ahx-(D-Arg)6-D-Lys-NH2]", "assay.system": "EPH-B2 (Homo sapiens, UniProt P29323)", "measured.number": 102}
{"compound": "N=C(N)NCCC[C@@H](NC(=O)CCCCCNCc1nc2c(sc3cc(Br)cnc32)c(=O)[nH]1)C(=O)N[C@H](CCCNC(=N)N)C(=O)N[C@H](CCCNC(=N)N)C(=O)N[C@H](CCCNC(=N)N)C(=O)N[C@H](CCCNC(=N)N)C(=O)N[C@H](CCCNC(=N)N)C(=O)N[C@H](CCCCN)C(N)=O [ARC-3126, BPTP-Ahx-(D-Arg)6-D-Lys-NH2] (X3-[dR][dR][dR][dR][dR][dR][dK]-NH2)", "assay.system": "EPH-B2 (Homo sapiens, UniProt P29323)", "measured.number": 107}

---

# assay.system: MAPKAP-K2 (Homo sapiens)
# Sequence (P49137 whole entry): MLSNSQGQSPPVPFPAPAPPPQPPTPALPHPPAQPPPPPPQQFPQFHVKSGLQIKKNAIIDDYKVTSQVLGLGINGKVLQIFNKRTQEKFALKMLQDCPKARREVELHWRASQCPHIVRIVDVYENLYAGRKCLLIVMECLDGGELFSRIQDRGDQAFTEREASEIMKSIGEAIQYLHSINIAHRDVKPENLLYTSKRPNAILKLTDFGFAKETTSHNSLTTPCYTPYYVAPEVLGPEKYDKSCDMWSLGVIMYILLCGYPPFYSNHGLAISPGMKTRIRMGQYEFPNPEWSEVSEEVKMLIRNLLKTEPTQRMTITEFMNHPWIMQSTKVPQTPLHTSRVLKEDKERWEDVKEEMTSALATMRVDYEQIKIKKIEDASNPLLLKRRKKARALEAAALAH
# protocol.summary: Kinase profiling (radiometric filter-binding)
# Format: biochemical
# test.conditions: MAPKAP-K2, 1 µM inhibitor; read-out: Residual activity, %
# Protocol: Kinase selectivity profiling was performed using the commercial service provided by the MRC PPU International Centre for Kinase Profiling (Dundee, UK) using a radiometric filter-binding assay. Kinases used for analysis were of human origin. The ATP concentration applied for inhibition measurements was at or below the ATP KM value of the particular PK. […] Residual activities were expressed as the percentage of retained activity compared to the control without inhibitor.
Entries and their measured remaining activity at 1 µM follow.

{"molecular.string": "N=C(N)NCCC[C@@H](NC(=O)CNC(=O)[C@@H](CCCNC(=N)N)NC(=O)[C@@H](CCCNC(=N)N)NC(=O)Cn1cc(CNCc2nc3c(sc4ccc(Br)cc43)c(=O)[nH]2)nn1)C(=O)N[C@H](CCCCN)C(N)=O", "unit.tag": "%", "remaining activity at 1 µM": 114}
{"molecular.string": "N=C(N)NCCC[C@@H](NC(=O)CNC(=O)[C@@H](CCCNC(=N)N)NC(=O)[C@@H](CCCNC(=N)N)NC(=O)CCCCCCCNCc1nc2c(sc3cc(Br)cnc32)c(=O)[nH]1)C(=O)N[C@H](CCCCN)C(N)=O", "unit.tag": "%", "remaining activity at 1 µM": 107}
{"molecular.string": "N=C(N)NCCC[C@@H](NC(=O)CCCCCNC(=O)Cn1cnc2c(I)c(I)c(I)c(I)c21)C(=O)N[C@H](CCCNC(=N)N)C(=O)N[C@H](CCCNC(=N)N)C(=O)N[C@H](CCCNC(=N)N)C(=O)N[C@H](CCCNC(=N)N)C(=O)N[C@H](CCCNC(=N)N)C(=O)N[C@H](CCCCN)C(N)=O", "unit.tag": "%", "remaining activity at 1 µM": 51}
{"molecular.string": "N=C(N)NCCC[C@@H](NC(=O)CNC(=O)[C@@H](CCCNC(=N)N)NC(=O)[C@@H](CCCNC(=N)N)NC(=O)CCCCCCCNCc1nc2c(sc3ccc(Br)cc32)c(=O)[nH]1)C(=O)N[C@H](CCCCN)C(N)=O", "unit.tag": "%", "remaining activity at 1 µM": 107}

---

# assay.system: CAMKKb (Homo sapiens, UniProt Q96RR4)
# Sequence (Q96RR4 whole entry): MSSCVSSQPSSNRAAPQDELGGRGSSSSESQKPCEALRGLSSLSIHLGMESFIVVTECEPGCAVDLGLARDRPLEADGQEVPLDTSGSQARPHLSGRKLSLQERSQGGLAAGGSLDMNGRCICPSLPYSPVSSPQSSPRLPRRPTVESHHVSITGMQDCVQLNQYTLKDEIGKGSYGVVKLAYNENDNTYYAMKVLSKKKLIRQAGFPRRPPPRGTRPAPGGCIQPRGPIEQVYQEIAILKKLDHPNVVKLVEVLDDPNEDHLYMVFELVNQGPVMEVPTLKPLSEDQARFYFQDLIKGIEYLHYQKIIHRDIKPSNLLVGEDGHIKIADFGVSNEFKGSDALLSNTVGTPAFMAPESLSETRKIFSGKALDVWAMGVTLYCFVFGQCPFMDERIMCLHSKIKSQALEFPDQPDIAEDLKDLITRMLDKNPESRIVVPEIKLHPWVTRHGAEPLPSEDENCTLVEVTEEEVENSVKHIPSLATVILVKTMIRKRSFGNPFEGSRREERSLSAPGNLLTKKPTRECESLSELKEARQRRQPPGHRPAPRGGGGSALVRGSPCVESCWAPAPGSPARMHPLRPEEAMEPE
# protocol.summary: Kinase profiling (radiometric filter-binding)
# Type: biochemical
# test.conditions: 1 µM inhibitor, read-out: Residual activity, %
Square brackets hold non-standard residues; d marks the D form. Peptide text beside a SMILES is read from it. * marks the point of attachment. X3 = O=C(CCCCCNCc1nc2c(sc3cc(Br)cnc32)c(=O)[nH]1)*

{"compound": "N=C(N)NCCC[C@@H](NC(=O)CNC(=O)[C@@H](CCCNC(=N)N)NC(=O)[C@@H](CCCNC(=N)N)NC(=O)Cn1cc(CNCc2nc3c(sc4ccc(Br)cc43)c(=O)[nH]2)nn1)C(=O)N[C@H](CCCCN)C(N)=O [Compound 3, BBTP-Amt-(D-Arg)2-Gly-D-Arg-D-Lys-NH2]", "assay.system": "CAMKKb (Homo sapiens, UniProt Q96RR4)", "remaining activity at 1 µM": "85%"}
{"compound": "N=C(N)NCCC[C@@H](NC(=O)CCCCCNCc1nc2c(sc3cc(Br)cnc32)c(=O)[nH]1)C(=O)N[C@H](CCCNC(=N)N)C(=O)N[C@H](CCCNC(=N)N)C(=O)N[C@H](CCCNC(=N)N)C(=O)N[C@H](CCCNC(=N)N)C(=O)N[C@H](CCCNC(=N)N)C(=O)N[C@H](CCCCN)C(N)=O [ARC-3126, BPTP-Ahx-(D-Arg)6-D-Lys-NH2] (X3-[dR][dR][dR][dR][dR][dR][dK]-NH2)", "assay.system": "CAMKKb (Homo sapiens, UniProt Q96RR4)", "remaining activity at 1 µM": "104%"}
{"compound": "N=C(N)NCCC[C@@H](NC(=O)CCCCCNC(=O)Cn1cnc2c(I)c(I)c(I)c(I)c21)C(=O)N[C@H](CCCNC(=N)N)C(=O)N[C@H](CCCNC(=N)N)C(=O)N[C@H](CCCNC(=N)N)C(=O)N[C@H](CCCNC(=N)N)C(=O)N[C@H](CCCNC(=N)N)C(=O)N[C@H](CCCCN)C(N)=O [ARC-3125, TIBI-CH2-C(=O)-Ahx-(D-Arg)6-D-Lys-NH2]", "assay.system": "CAMKKb (Homo sapiens, UniProt Q96RR4)", "remaining activity at 1 µM": "47%"}
{"compound": "N=C(N)NCCC[C@@H](NC(=O)CNC(=O)[C@@H](CCCNC(=N)N)NC(=O)[C@@H](CCCNC(=N)N)NC(=O)CCCCCCCNCc1nc2c(sc3ccc(Br)cc32)c(=O)[nH]1)C(=O)N[C@H](CCCCN)C(N)=O [Compound 2, BBTP-Aoc-(D-Arg)2-Gly-D-Arg-D-Lys-NH2]", "assay.system": "CAMKKb (Homo sapiens, UniProt Q96RR4)", "remaining activity at 1 µM": "108%"}
{"compound": "N=C(N)NCCC[C@@H](NC(=O)CNC(=O)[C@@H](CCCNC(=N)N)NC(=O)[C@@H](CCCNC(=N)N)NC(=O)CCCCCCCNCc1nc2c(sc3cc(Br)cnc32)c(=O)[nH]1)C(=O)N[C@H](CCCCN)C(N)=O [Compound 1, BPTP-Aoc-(D-Arg)2-Gly-D-Arg-D-Lys-NH2]", "assay.system": "CAMKKb (Homo sapiens, UniProt Q96RR4)", "remaining activity at 1 µM": "117%"}
